system: HIV-1; test: microbe, parasite or virus in culture; conditions: Human immunodeficiency virus 1, MT4
One threshold, 2 nM, splits the recorded IC50 values: lower ones are yes, equal or higher ones are no.

Consider the worked cases shown below.
compound	className
CCOCc1c(C)[nH]c(=O)c(Br)c1Sc1cc(C)cc(C)c1 [compound 85]	no
CCc1c(C)[nH]c(=O)c(I)c1[S+]([O-])c1cc(C)cc(C)c1 (centres unmarked) [compound 108]	no
CCc1c(C)[nH]c(=O)c(I)c1Oc1cc(Br)cc(/C=C/C#N)c1 [compound 470]	yes
Cc1cc(C)cc(Oc2c(CO)c(C)[nH]c(=O)c2I)c1 [compound 257]	no
CCc1c(CO)[nH]c(=O)c(I)c1Oc1cc(C)cc(C)c1 [compound 133]	yes

Query: Say whether its IC50 is strictly beneath 2 nM. Entry: CCc1c(C)[nH]c(=O)c(CC)c1Oc1cc(C)cc(C)c1 [compound 231]
Response: no

Query: Say whether its IC50 is strictly beneath 2 nM. Entry: Cc1cc(C)cc(Oc2c(CCCc3ccccc3)c(C)[nH]c(=O)c2I)c1 [compound 547]
Response: no

Query: Say whether its IC50 is strictly beneath 2 nM. Entry: CCOCc1c(C)[nH]c(=O)c(I)c1Sc1cc(C)cc(C)c1 [compound 86]
Response: no

Query: Say whether its IC50 is strictly beneath 2 nM. Entry: CCc1c(C)[nH]c(=O)c(I)c1Oc1cc(I)cc(CC#N)c1 [compound 426]
Response: yes

Query: Say whether its IC50 is strictly beneath 2 nM. Entry: Cc1cc(C)cc(Oc2c(CSCc3csc(C)n3)c(C)[nH]c(=O)c2I)c1 [compound 483]
Response: yes

Query: Say whether its IC50 is strictly beneath 2 nM. Entry: CCSCc1c(C)[nH]c(=O)c(I)c1Sc1cc(C)cc(C)c1 [compound 45]
Response: no

Query: Say whether its IC50 is strictly beneath 2 nM. Entry: Cc1cc(C)cc(Sc2c(CN3CCOCC3)c(C)[nH]c(=O)c2I)c1 [compound 43]
Response: yes

Query: Say whether its IC50 is strictly beneath 2 nM. Entry: CCOCc1c(C)[nH]c(=O)c(I)c1Oc1cc(C)cc(C)c1 [compound 255]
Response: yes

====

test: Cytotoxicity in mock-infected MT-4 cells (MTT); type: cell-based; details: human, mock-infected MT-4 cells, concentration reducing absorbance of mock-infected MT-4 control by 50%
measuredParameter: CC50

compound	measuredParameter	valueReported
CCOCc1c(C)[nH]c(=O)c(I)c1Oc1cc(C)cc(C)c1 [compound 255]	CC50	> 10 µM
CCOCc1c(C)[nH]c(=O)c(I)c1Sc1cc(C)cc(C)c1 [compound 86]	CC50	> 100 µM
Cc1cc(C)cc(Oc2c(CSCc3csc(C)n3)c(C)[nH]c(=O)c2I)c1 [compound 483]	CC50	> 100 µM
Cc1cc(C)cc(Oc2c(CCCc3ccccc3)c(C)[nH]c(=O)c2I)c1 [compound 547]	CC50	> 100 µM
CCOCc1c(C)[nH]c(=O)c(Br)c1Sc1cc(C)cc(C)c1 [compound 85]	CC50	> 100 µM
Cc1cc(C)cc(Oc2c(CO)c(C)[nH]c(=O)c2I)c1 [compound 257]	CC50	> 32 µM
CCc1c(CO)[nH]c(=O)c(I)c1Oc1cc(C)cc(C)c1 [compound 133]	CC50	> 10 µM

Next compound, CC50 to be filled in.
Query: Specify measured CC50 for CCSCc1c(C)[nH]c(=O)c(I)c1Sc1cc(C)cc(C)c1 [compound 45] .
Response: > 100 µM

====

test system: mock-infected MT-4 cells; test: Cytotoxicity in mock-infected MT-4 cells (MTT); assay type: cell-based; conditions: concentration reducing absorbance of mock-infected MT-4 control by 50%
measuredParameter: CC50 (µM)
# value in µM; strip the unit string

These solved cases illustrate the format of a correct answer.
molecule	valueReported
CCc1c(C)[nH]c(=O)c(C2CC2)c1Oc1cc(C)cc(C)c1	8
CCc1c(C)[nH]c(=O)c(I)c1Oc1cc(C)cc(/C=C/C#N)c1 [compound 83]	8

Next molecule, CC50 to be filled in.
Query: Specify measured CC50 for `Cc1cc(C)cc(Sc2c(Cn3cccc3)c(C)[nH]c(=O)c2I)c1` .
Response: 50

====

List of CC50 values.
tested on: mock-infected MT-4 cells; assay: Cytotoxicity in mock-infected MT-4 cells (MTT); assay type: cell-based; conditions: concentration reducing absorbance of mock-infected MT-4 control by 50%

compound	measuredParameter	valueReported
CCc1c(C)[nH]c(=O)c(I)c1Oc1cccc(C=O)c1 [compound 321]	CC50	> 100 µM
CCc1c(C)[nH]c(=O)c(I)c1Oc1cc(C)cc(/C=C/C#N)c1 [compound 551]	CC50	13 µM
CCc1c(C)[nH]c(=O)c(C(F)(F)F)c1Oc1cc(C)cc(C)c1 [compound 409]	CC50	40 µM
CCc1c(C)[nH]c(=O)c(I)c1Oc1cccc(CO)c1 [compound 322]	CC50	> 100 µM

Query: Specify measured CC50 for CCc1c(C)[nH]c(=O)c(I)c1Oc1cc(/C(C)=C/C#N)cc(/C(C)=C/C#N)c1 [compound 684] .
Response: > 100 µM

Query: Specify measured CC50 for Cc1cc(C)cc(Oc2c(CN3CCN(c4ccccn4)CC3)c(C)[nH]c(=O)c2I)c1 [compound 696] .
Response: > 40 µM

====

tested on: HIV-1; settings: dose achieving 50% protection of HIV-infected MT-4 cells, MTT, OD 540 nm
measuredParameter: IC50 (nM)
# value in nM; strip the unit string

These solved cases illustrate the format of a correct answer.
molecularString	measuredParameter	valueReported
CON=Cc1c(C)[nH]c(=O)c(I)c1Oc1cc(C)cc(C)c1	IC50	6.3
Cc1cc(C)cc(Oc2c(CNC(=O)c3cc4ccccc4o3)c(C)[nH]c(=O)c2I)c1	IC50	6.3

Query: Specify measured IC50 for `CCOC(=O)NCc1c(C)[nH]c(=O)c(I)c1Oc1cc(C)cc(C)c1` .
Response: 7.9

Query: Specify measured IC50 for `C=Cc1cccc(Oc2c(CC)c(C)[nH]c(=O)c2I)c1` .
Response: 2

Query: Specify measured IC50 for `Cc1cc(C)cc(Oc2c(COCc3ccccc3)c(C)[nH]c(=O)c2I)c1` .
Response: 6.3

Query: Specify measured IC50 for `Cc1cc(C)cc(Sc2c(CSCc3cccs3)c(C)[nH]c(=O)c2I)c1` .
Response: 10

Query: Specify measured IC50 for `Cc1cc(C)cc(Oc2c(CNC=O)c(C)[nH]c(=O)c2I)c1` .
Response: 10

Query: Specify measured IC50 for `CCc1c(C)[nH]c(=O)c(I)c1Oc1ccccc1` .
Response: 1.6

====

test system: mock-infected MT-4 cells; experiment: Cytotoxicity in mock-infected MT-4 cells (MTT); format: cell-based; conditions: concentration reducing absorbance of mock-infected MT-4 control by 50%
List of CC50 values.

molecularString	valueReported
CCc1c(C)[nH]c(=O)c(I)c1Cc1cccc(C)c1	> 32 µM

Query: Specify measured CC50 for `Cc1cc(C)cc(Oc2c(CSCc3ccco3)c(C)[nH]c(=O)c2I)c1` .
Response: > 100 µM

Query: Specify measured CC50 for `CCOC(=O)CSCc1c(C)[nH]c(=O)c(I)c1Oc1cc(C)cc(C)c1` .
Response: > 100 µM

Query: Specify measured CC50 for `Cc1cc(C)cc(Oc2c(Cn3cncn3)c(C)[nH]c(=O)c2I)c1` .
Response: > 100 µM

====

tested on: mock-infected MT-4 cells; assay: Cytotoxicity in mock-infected MT-4 cells (MTT); type: cell-based; conditions: concentration reducing absorbance of mock-infected MT-4 control by 50%
measuredParameter: CC50

These solved cases illustrate the format of a correct answer.
compound	CC50
CCc1c(C)[nH]c(=O)c(I)c1Oc1cc(C)cc(CCl)c1 [compound 81]	13 µM
CCc1c(C)[nH]c(=O)c(OC)c1Oc1cc(C)cc(C)c1 [compound 277]	> 100 µM
Cc1cccc(Sc2c3c([nH]c(=O)c2I)CCCCC3)c1 [compound 221]	> 20 µM
Cc1cc(C)cc(Oc2c(CN3CCN(C(=O)c4ccco4)CC3)c(C)[nH]c(=O)c2I)c1 [compound 700]	> 8 µM
Cc1cc(C)cc(Oc2c(COCc3ccsc3)c(C)[nH]c(=O)c2I)c1 [compound 244]	> 100 µM
Cc1cc(C)cc(Oc2c(CCO)c(C)[nH]c(=O)c2I)c1 [compound 241]	> 100 µM
CCc1c(C)[nH]c(=O)c(I)c1Oc1ccccc1 [compound 328]	> 100 µM
CCc1c[nH]c(=O)c(I)c1Oc1cccc(C)c1 [compound 314]	> 32 µM

Query: Specify measured CC50 for Cc1cc(C)cc(Oc2c(CCCOCc3ccccc3)c(C)[nH]c(=O)c2I)c1 [compound 250] .
Response: 25 µM

Query: Specify measured CC50 for CCc1c(C)[nH]c(=O)c(I)c1Oc1cccc([N+](=O)[O-])c1 [compound 297] .
Response: > 32 µM

Query: Specify measured CC50 for CCOC(=O)c1c(Oc2cc(C)cc(C)c2)c(CC)c(C)[nH]c1=O [compound 324] .
Response: 32 µM

Query: Specify measured CC50 for COCCc1c(C)[nH]c(=O)c(I)c1Oc1cc(C)cc(C)c1 [compound 264] .
Response: > 10 µM

Query: Specify measured CC50 for COc1ccccc1Cc1c(C)[nH]c(=O)c(I)c1Oc1cc(C)cc(C)c1 [compound 249] .
Response: > 32 µM

Query: Specify measured CC50 for CCc1c(C)[nH]c(=O)c(Br)c1Sc1cc(C)cc(C)c1 [compound 109] .
Response: 32 µM

Query: Specify measured CC50 for CC(=O)N1CCN(Cc2c(C)[nH]c(=O)c(I)c2Oc2cc(C)cc(C)c2)CC1 [compound 701] .
Response: 63 µM

Query: Specify measured CC50 for Cc1cc(C)cc(Oc2c(CSCc3ccccc3)c(C)[nH]c(=O)c2I)c1 [compound 92] .
Response: > 32 µM

Query: Specify measured CC50 for CC(=O)c1ccc(N2CCN(Cc3c(C)[nH]c(=O)c(I)c3Oc3cc(C)cc(C)c3)CC2)cc1 [compound 694] .
Response: 63 µM

Query: Specify measured CC50 for Cc1cc(C)cc(Oc2c(CCCO)c(C)[nH]c(=O)c2I)c1 [compound 242] .
Response: > 100 µM
